The measurements presented in this section are drawn from ChEMBL document CHEMBL1148293.

Assign Selectivity to each entry below.
tested on: Opioid receptors; mu & delta; assay: Selectivity ratio expressed as Ki of delta opioid receptor to that of mu opioid receptor.; assay type: protein assay; conditions: Cavia porcellus

Input: Need Selectivity, item CN1CC[C@]23CCCC[C@H]2[C@H]1Cc1ccc(CN)cc13
Output: > 38

Input: Which measured Selectivity value corresponds to O=C1c2ccc(O)cc2[C@@]23CCCC[C@H]2[C@@H]1NCC3 ?
Output: > 500

Input: Which Selectivity value belongs to CN1CC[C@]23CCCC[C@H]2[C@H]1Cc1ccc(-c2nn[nH]n2)cc13 ?
Output: > 26
